// reported Z Score per item
Biological target: T1, P-cadherin-ECD1-3-Fc protein (human P-cadherin-Fc) (human, UniProt P22223 108-440)
T1 construct: Construct was expressed with signal peptide and pro-peptide (PACE co-transfected to process the propeptide); not shown: hinge and CH2 and CH3 domains of human IgG1
T1 sequence (P22223 108-440): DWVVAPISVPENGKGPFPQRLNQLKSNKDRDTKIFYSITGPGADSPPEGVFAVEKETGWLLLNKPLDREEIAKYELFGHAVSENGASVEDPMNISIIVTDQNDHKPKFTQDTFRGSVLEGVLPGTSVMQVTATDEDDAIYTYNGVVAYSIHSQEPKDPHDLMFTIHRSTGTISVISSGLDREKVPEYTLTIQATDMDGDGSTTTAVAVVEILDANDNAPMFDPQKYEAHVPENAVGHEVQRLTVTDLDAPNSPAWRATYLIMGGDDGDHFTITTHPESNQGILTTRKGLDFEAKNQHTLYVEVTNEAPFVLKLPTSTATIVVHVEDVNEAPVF
Assay: phage scFv ELISA, coated P-cadherin-ECD1-3-Fc
Property Name: Z Score

Binder	Result
anti-P-cadherin scFv 153 alanine-mutant H1.7-Ala (scFv, V domains shown, scFv on phage) VH: EVQLVQSGAEVKKPGASVKVSCKASGYTFTSAGISWVRQAPGQGLEWMGWISAYNGNTNYAQKLQGRVTMTTDTSTSTAYMELRSLRSDDTAVYYCATIDTANAFGIWGQGTMVTVSS VL: QSVLTQPPSVSAAPGQKVTISCSGSSSNIGNNYVSWYQQLPGTAPKLLIYDNNKRPSGIPDRFSGSKSGTSATLGITGLQTGDEADYYCGTWDSSLSGVVFGGGTKLTVL	0.6
anti-P-cadherin scFv 153 alanine-mutant H2.6-Ala (scFv, V domains shown, scFv on phage) VH: EVQLVQSGAEVKKPGASVKVSCKASGYTFTSYGISWVRQAPGQGLEWMGWISAYAGNTNYAQKLQGRVTMTTDTSTSTAYMELRSLRSDDTAVYYCATIDTANAFGIWGQGTMVTVSS VL: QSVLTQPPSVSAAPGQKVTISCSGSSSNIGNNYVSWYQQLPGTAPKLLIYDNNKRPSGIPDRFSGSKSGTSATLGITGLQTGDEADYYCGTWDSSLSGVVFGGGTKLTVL	-0.4
anti-P-cadherin scFv 153 alanine-mutant H1.8-Ala (scFv, V domains shown, scFv on phage) VH: EVQLVQSGAEVKKPGASVKVSCKASGYTFTSYAISWVRQAPGQGLEWMGWISAYNGNTNYAQKLQGRVTMTTDTSTSTAYMELRSLRSDDTAVYYCATIDTANAFGIWGQGTMVTVSS VL: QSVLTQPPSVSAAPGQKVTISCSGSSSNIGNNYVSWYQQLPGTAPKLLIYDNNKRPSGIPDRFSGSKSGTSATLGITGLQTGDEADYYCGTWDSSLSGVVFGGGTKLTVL	-1.5

Values from patent US20160002357A1
